The values you see were collected from patent US7915448B2.

# procedure-text: Half-life in Human Liver Microsomes (HLM)
# condition-parameters: human, human liver microsomes (HL101), pH 7.4
quantity-name: half-life at 1 μM (min)

Cc1cc([C@@H](C)NC(=O)[C@H]2C[C@@H]2c2ccc(C(F)(F)F)nc2N(C)C)c(F)cc1NS(C)(=O)=O [Example 79] = 22
Cc1cc([C@@H](C)NC(=O)C2CC2c2ccc(C(C)(C)C)nc2N2CCCCC2)ccc1NS(C)(=O)=O (stereo partly shown) [Example 49] = 3
Cc1cc([C@H](C)NC(=O)[C@H]2C[C@]2(C)c2ccc(C(F)(F)F)cc2)ccc1NS(C)(=O)=O (single isomer, unassigned) [Example 82] = 26
CC(C)(C)c1ccc(C2CC2C(=O)NCc2ccc(NS(C)(=O)=O)c(F)c2)cc1 (stereo not shown) [Example 1] = 13
CCc1cc([C@@H](C)NC(=O)C2CC2(C)c2ccc(OC(F)(F)F)cc2)ccc1NS(C)(=O)=O (single isomer, unassigned) [Example 75] = 10

I = C[C@@H](NC(=O)C1CC1(C)c1ccc(C(C)(C)C(F)(F)F)cc1)c1ccc(NS(C)(=O)=O)c(F)c1 (single isomer, unassigned) [Example 77]
II = Cc1cc([C@@H](C)NC(=O)C2CC2(C)c2cc(F)c(C(C)(C)C(F)(F)F)c(F)c2)ccc1NS(C)(=O)=O (single isomer, unassigned) [Example 71]
Which numeric half-life at 1 μM is bigger, that of I or that of II ? # answer = label of selected item
I
(I: 50 min, II: 15.8 min)

* * *

# tested-target: human VR1 receptors (Homo sapiens, UniProt Q8NER1)
# Construct: cell type not specified
# Sequence (Q8NER1 whole entry): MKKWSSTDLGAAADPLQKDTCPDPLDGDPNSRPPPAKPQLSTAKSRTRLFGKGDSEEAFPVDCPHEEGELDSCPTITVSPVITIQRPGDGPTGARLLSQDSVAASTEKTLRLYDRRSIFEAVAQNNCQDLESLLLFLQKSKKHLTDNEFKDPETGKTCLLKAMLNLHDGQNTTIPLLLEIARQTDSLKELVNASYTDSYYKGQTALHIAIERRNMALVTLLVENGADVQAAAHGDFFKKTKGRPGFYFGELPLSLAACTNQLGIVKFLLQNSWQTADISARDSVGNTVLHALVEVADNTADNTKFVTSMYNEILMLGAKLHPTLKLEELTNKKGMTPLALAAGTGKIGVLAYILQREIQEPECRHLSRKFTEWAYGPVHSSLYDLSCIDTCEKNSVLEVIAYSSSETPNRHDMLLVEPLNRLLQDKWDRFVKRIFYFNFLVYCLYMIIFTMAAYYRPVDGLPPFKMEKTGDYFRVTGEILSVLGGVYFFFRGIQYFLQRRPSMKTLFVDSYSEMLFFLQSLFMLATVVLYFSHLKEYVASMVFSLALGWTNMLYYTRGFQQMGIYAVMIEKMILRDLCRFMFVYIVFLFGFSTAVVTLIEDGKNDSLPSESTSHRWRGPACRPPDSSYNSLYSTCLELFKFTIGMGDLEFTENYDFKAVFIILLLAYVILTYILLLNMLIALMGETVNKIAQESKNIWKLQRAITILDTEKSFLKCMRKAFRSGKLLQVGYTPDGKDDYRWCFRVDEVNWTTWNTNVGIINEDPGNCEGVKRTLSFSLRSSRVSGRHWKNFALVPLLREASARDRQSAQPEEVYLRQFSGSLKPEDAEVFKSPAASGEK
# procedure-text: Human VR1 antagonist assay (Ca2+ imaging)
# condition-parameters: cells expressing human VR1, fura-2 Ca2+ imaging, FDSS 6000; capsaicin (300 nM) or acid (pH5.8) stimulation, table does not say which
quantity-name: IC50 (nM)

Cc1cc([C@@H](C)NC(=O)[C@H]2C[C@]2(C)c2ccc(C(F)(F)F)nc2N2CCOCC2)ccc1NS(C)(=O)=O [Example 84] = 24.5

A = C[C@@H](NC(=O)C1CC1c1ccc(C(F)(F)F)cc1)c1ccc(NS(C)(=O)=O)c(CO)c1 (stereo partly shown) [Example 20]
B = C[C@@H](NC(=O)C1CC1(C)c1ccc(C(F)(F)F)c(F)c1)c1ccc(NS(C)(=O)=O)c(F)c1 (stereo partly shown) [Example 67]
C = Cc1cc([C@@H](C)NC(=O)C2CC2(C)c2ccc(SC(F)(F)F)cc2)ccc1NS(C)(=O)=O (stereo partly shown) [Example 24]
Order the items by recorded IC50; the first position goes to the largest value. Note for the reader: the ranking is given by listing the labels in the order requested.
A, C, B

* * *

# procedure-text: Half-life in Human Liver Microsomes (HLM)
# condition-parameters: human, human liver microsomes (HL101), pH 7.4
quantity-name: half-life at 1 μM (min)

Record excerpt, results attached:
CCc1cc([C@@H](C)NC(=O)C2CC2(C)c2ccc(OC(F)(F)F)cc2)ccc1NS(C)(=O)=O (mixture of isomers) [Example 29] = 19
C[C@@H](NC(=O)[C@H]1C[C@@H]1c1cc(F)c(C(C)(C)C)c(F)c1)c1ccc(NS(C)(=O)=O)cc1 [Example 38] = 40
Cc1cc([C@@H](C)NC(=O)C2CC2(C)c2ccc(C(C)(C)C)nc2)ccc1NS(C)(=O)=O (stereo partly shown) [Example 10] = 22
Cc1cc([C@@H](C)NC(=O)[C@H]2C[C@]2(C)c2ccc(C(F)(F)F)cc2)c(F)cc1NS(C)(=O)=O [Example 41] = 21

I = Cc1cc([C@@H](C)NC(=O)[C@H]2C[C@]2(C)c2ccc(C(C)(C)C(F)(F)F)cc2)ncc1NS(C)(=O)=O [Example 37]
II = Cc1cc([C@@H](C)NC(=O)[C@H]2C[C@@H]2c2ccc(C(F)(F)F)nc2N2CCCC2)ccc1NS(C)(=O)=O [Example 46]
Look at I and II . Which one has the lower recorded half-life at 1 μM number? # answer = label of selected item
II
